# Tested on: CCRIS mutagenicity, Ames/micronucleus/aberration tests
# Measurement Notes: CCRIS mutagenicity studies
# Reported Conditions: Test System: AMES SALMONELLA TYPHIMURIUM; Strain/Indicator: TA1535; Metabolic Activation: RAT LIVER S-9, PHENOBARBITAL AND BETA-NAPHTHOFLAVONE; Method: PREINCUBATION
Activity calls are given as the source filed them. How the calls were made is not given here.
Can you answer with just one of these options? TRUE (active), FALSE (inactive)

Identify the outcome logged in this assay for the molecule shown: `CCOC(=O)CBr` FALSE

Please give the result for `COc1ccccc1[N+](=O)[O-]` too. FALSE

Consider next the molecule `NCCCN1CCN(CCCN)CC1` in the same way. FALSE

Ok, now `CN(C)N` FALSE

Also `O=S(O)CO` ? FALSE

Queued: `ClCc1ccc(Cl)cc1` FALSE

// repeat for `N=C(N)N` and report FALSE

Same question, `Cc1ccc(N)cc1N` this time FALSE

# repeat for `COC(=O)c1ccc(C(=O)OC)cc1` FALSE

Moving on to `CCCCCCCCBr` FALSE

// repeat for `CCCCCCCCCCCCCCCCCC(=O)NCCNC(=O)CCCCCCCCCCCCCCCCC` and report FALSE

One more molecule: `C1CN(SSN2CCOCC2)CCO1` FALSE

And for C1=CC2C3C=CC(C3)C2C1 (configuration not stated) ? FALSE

Next entry: `ClCc1ccccc1` FALSE

What about this molecule? `COc1ccc(N)cc1` FALSE

What about `Nc1cccc2cccc(S(=O)(=O)O)c12` ? FALSE

# repeat for `CCN(Cc1ccccc1)c1ccccc1` FALSE

How about this molecule: `Clc1ccc(C(Cl)(Cl)Cl)cc1` TRUE

Likewise for CC(Br)C(=O)O (configuration not stated) ? TRUE

Same again, this time with `[O-][Cl+3]([O-])([O-])O` FALSE

Likewise for `C=C1CC(=O)O1` ? FALSE

Same again, this time with `OCCCCCCO` FALSE

Input COC(C)CCO (configuration not stated) FALSE

Would you kindly repeat that for `Nc1ccc(NC(=O)c2ccc(N)cc2)cc1` ? FALSE

Same again, this time with CCCCC(CC)CO (configuration not stated) FALSE

Now this one: `CCNNCC` FALSE

Input `N[C@@H](CC(=O)O)C(=O)O` FALSE

----------
# Test system: CCRIS mutagenicity, Ames/micronucleus/aberration tests
# Measurement Notes: CCRIS mutagenicity studies
# Reported Conditions: Test System: AMES SALMONELLA TYPHIMURIUM; Strain/Indicator: TA98; Metabolic Activation: NONE; Method: STANDARD PLATE
# Text: The CCRIS database contains chemical records with carcinogenicity, mutagenicity, tumor promotion, and tumor inhibition test results. It was developed by the National Cancer Institute (NCI). Data are derived from studies cited in primary journals, current awareness tools, NCI reports, and other sources. Test results have been reviewed by experts in carcinogenesis and mutagenesis. CCRIS provides historical information from the years 1985 - 2011. It is no longer updated. […]
Activity calls are given as the source filed them. How the calls were made is not given here.
Hi! Could you answer with just one of these? yes for active, no for inactive

Name the outcome recorded for `Cc1ncc[nH]1` in the assay. no

Proceed to `O=[N+]([O-])c1c2c(c3ccc4cccc5ccc1c3c45)C=CCC2` no

Repeat for the following molecule: `NCCNCCNCCN` yes

Same for `Nc1ccc2[nH]c3ccccc3c2c1` no

Now consider `[O]=[Cr](=[O])([OH])[O][Cr](=[O])(=[O])[OH]` . yes

Try this molecule next: `C=CCN=C=S` no

Next record, please: `COc1ccc(/C=C/c2ccc(N)cc2)cc1` no

Also, `Nc1cccc2c(N)cccc12` please. no

Do the same for `c1ccc2c(c1)CC[C@H]1CCC[C@@H]3O[C@]213` please no

What would you report for `O=[N+]([O-])c1cc(C(F)(F)F)cc([N+](=O)[O-])c1O` ? no

Same again, this time with `CC(=O)N(O)c1ccc(Cl)cc1` no

Same question, `Cc1ccc(N=Nc2c(O)ccc3ccccc23)cc1` this time no

Queued: `O=[N+]([O-])c1cc2[nH]c3ccc4ccccc4c3c2c2cccc(O)c12` yes

Also, `ClCc1cc2cccc3ccc4c5ccccc5cc1c4c32` please. yes

----------
# Tested on: CCRIS mutagenicity, Ames/micronucleus/aberration tests
# Measurement Notes: CCRIS mutagenicity studies
# Reported Conditions: Test System: AMES SALMONELLA TYPHIMURIUM; Strain/Indicator: TA1535; Metabolic Activation: NONE; Method: PREINCUBATION
Activity calls are given as the source filed them. The rule behind the calls is not given here.
Hello, when you answer, please use one of the following outcomes: True (active), False (inactive)

Query: recorded result category for `Cc1ccc(S(=O)(=O)O)cc1C` in this test False

Also, `NCCNCCNCCN` please. True

Another compound to check: `Nc1cc(Cl)c([N+](=O)[O-])cc1O` False

Next compound: `CN(N)C=O` False

And for `Nc1ccc(Cc2ccc(N)c(Cc3ccc(N)cc3)c2)cc1` ? False

Subsequent entry: `COC1=C(OC)C(=O)C(C/C=C(\C)CC/C=C(\C)CC/C=C(\C)CC/C=C(\C)CC/C=C(\C)CC/C=C(\C)CC/C=C(\C)CC/C=C(\C)CC/C=C(\C)CCC=C(C)C)=C(C)C1=O` False

Again, but for `S=c1nc[nH]c2nc[nH]c12` True

Now the compound `COC(=O)c1ccc(C=O)cc1` False

Similarly, CCCCC(CC)COCC1CO1 (stereo not drawn) ? False

Follow-up item: `COC(=O)c1ccccc1O` False

Param item: `CCCCNCC` False

Next up: `NCCCNCCCN` False

Entry NC(Cc1ccc(F)cc1)C(=O)O (stereo not drawn) please False

Now consider `O=S(O)CO` and answer again. False

Now give it for CC(O)CNCC(C)O (stereo not drawn) too. False

Now consider `CC(C)(C)S(=O)(=O)C[C@@H](Cc1ccccc1)C(=O)N[C@@H](Cc1cnc[nH]1)C(=O)N[C@@H](CC1CCCCC1)[C@@H](O)[C@@H](O)C1CC1` and answer again. False

Another compound to look at: CN1C(CSCC(F)(F)F)Nc2cc(Cl)c(S(N)(=O)=O)cc2S1(=O)=O (stereo not drawn) False

Note, next up: `O=O` False

// next record `O=C(O)c1ccccc1C(=O)O` False

Follow-up item: `CCCCCCCCBr` False

Record: `CCc1cn([C@H]2C[C@H](O)[C@@H](CO)O2)c(=O)[nH]c1=O` False

Please answer likewise for `CC(=O)CC(C)C` False

What do you get for `Nc1cccc2cccc(S(=O)(=O)O)c12` ? False

Another compound to check: `CCCCCCCC(=O)CCc1ccc(O)c(OC)c1` False

Same for Clc1ccc(CC2CO2)cc1 (stereo not drawn) True

Could you do the same for `OC/C(Br)=C(\Br)CO` , please? False

Would you mind doing `CCCCCCCCCCCCCCCCCC[N+](C)(C)Cc1ccccc1` as well? False

Item: `CCCCCCC[CH2][Sn]([CH2]CCCCCCC)([S]CC(=O)OCCCCCC(C)C)[S]CC(=O)OCCCCCC(C)C` False

----------
# System: CCRIS mutagenicity, Ames/micronucleus/aberration tests
# Measurement Notes: CCRIS mutagenicity studies
# Reported Conditions: Test System: AMES SALMONELLA TYPHIMURIUM; Strain/Indicator: TA98; Metabolic Activation: RAT LIVER S-9, PHENOBARBITAL AND BETA-NAPHTHOFLAVONE; Method: PREINCUBATION
# From the text: The CCRIS database contains chemical records with carcinogenicity, mutagenicity, tumor promotion, and tumor inhibition test results. It was developed by the National Cancer Institute (NCI). Data are derived from studies cited in primary journals, current awareness tools, NCI reports, and other sources. Test results have been reviewed by experts in carcinogenesis and mutagenesis. CCRIS provides historical information from the years 1985 - 2011. It is no longer updated. […]
Calls of active or inactive are those of the source. How the calls were made is not given here.
# valid calls are True = active, False = inactive; nothing else

Per the records of this test, what outcome belongs to `CCCCCCCCCCCCCCCCCC(=O)NCCNC(=O)CCCCCCCCCCCCCCCCC` ? False

Also check `CN(C)N` False

Same thing, different compound: `COc1ccc(N)cc1` False

Quick one: `NCCCN1CCN(CCCN)CC1` False

`COC(=O)c1ccc(C(=O)OC)cc1` , same question. False

Repeat for the following compound: `C=C1CC(=O)O1` False

Also need `Clc1ccc(C(Cl)(Cl)Cl)cc1` , thanks. True

Entry `COc1ccccc1[N+](=O)[O-]` please False

Same lookup for `CCN(Cc1ccccc1)c1ccccc1` , please. False

Would you mind doing `CCCCCCCCBr` as well? False

Now the compound `[O-][Cl+3]([O-])([O-])O` False

Consider next the compound `ClCc1ccccc1` in the same way. False

And for CCCCC(CC)CO (stereo not drawn) ? False

Moving on to C1=CC2C3C=CC(C3)C2C1 (stereo not drawn) False

Entry `Nc1ccc(NC(=O)c2ccc(N)cc2)cc1` please True

One more compound: `CCOC(=O)CBr` False

Next: `C1CN(SSN2CCOCC2)CCO1` False

Then what about the compound `Cc1cc(-c2ccc(N)c(C)c2)ccc1N` ? True

Same question for `N[C@@H](CC(=O)O)C(=O)O` please. False

Please do the same for `Cc1ccc(N)cc1N` as well. True

Now consider `N=C(N)N` and answer again. False

Please give the result for `O=S(O)CO` too. False

# repeat for `Nc1cccc2cccc(S(=O)(=O)O)c12` True

Would you mind doing `CCNNCC` as well? False

Ok, now `OCCCCCCO` False

`ClCc1ccc(Cl)cc1` , same question. False

What do we get for CC(Br)C(=O)O (stereo not drawn) ? False

For COC(C)CCO (stereo not drawn) then? False
